Test system: SK-MEL-28 melanoma
Experiment: NCI-60 one-dose screen, 48 h (100 = growth as untreated, 0 = no growth, -100 = all killed)
Details: 10 µM
About 83,000 compounds went through this panel and 20% of them were active in at least one assay; those are over-represented in the sample as a whole.
Entries whose growth is below 80% take criterion met; entries at or above 80% take criterion not met.

Inquiry: Find out if reported growth for `COc1ccc(NC(=O)Cc2nc3nc4sc(C)c(C)c4c(=O)n3[nH]2)cc1` is less than 80%
Reply text: criterion not met

Inquiry: Next up: CCCC(F)C(=O)O (stereo not drawn)
Reply text: criterion not met

Inquiry: Next up: `COc1ccc2c(c1)nc(N)c1c3cccnc3cn21`
Reply text: criterion met

Inquiry: Next up: `O=S(=O)(NCCCNc1nccc(-c2c(-c3ccc(F)cc3)nc3sccn23)n1)c1ccc2ccccc2c1`
Reply text: criterion met

Inquiry: Next up: `O=C(Nc1ccncc1)C(=O)c1cn(S(=O)(=O)c2cccc3ccccc23)c2ccccc12`
Reply text: criterion not met

Inquiry: Next up: COc1cc2c(cc1OCCCCCCN1CCN(CC(=O)Nc3ccc(Cl)cc3C(=O)c3ccccc3Cl)CC1)N=CC1CCCN1C2=O (stereo not drawn)
Reply text: criterion met

Inquiry: Next up: `O=C(O)c1ccc(Cl)cc1Nc1ccc(F)cc1`
Reply text: criterion not met

Inquiry: Next up: O=C1OCC2=C1C(c1cccc(Cl)c1)c1cc3c(cc1N2CCO)CCC3 (stereo not drawn)
Reply text: criterion met

Inquiry: Next up: `CC(C)=CCc1ccc(O)c(=O)cc1C(C)C`
Reply text: criterion met

Inquiry: Next up: `c1ccc(CP(Cc2ccccc2)c2ccccc2)cc1`
Reply text: criterion not met

Inquiry: Next up: `CCOC(=O)c1ccoc1`
Reply text: criterion not met

Inquiry: Next up: COc1cccc(NC(=O)c2sc3nc4c(cc3c2N)C(O)CCC4)c1 (stereo not drawn)
Reply text: criterion met

Inquiry: Next up: CCOC(=O)C(CSC(c1ccccc1)(c1ccccc1)c1ccccc1)NC(=O)C(CSC(c1ccccc1)(c1ccccc1)c1ccccc1)NC(c1ccccc1)(c1ccccc1)c1ccccc1 (stereo not drawn)
Reply text: criterion not met

Inquiry: Next up: `Nc1c(C(=O)Nc2ccccc2Cl)sc2nc3c(cc12)C(=O)CCC3`
Reply text: criterion met

Inquiry: Next up: `C[N+](C)(C)c1ncnc2nc[nH]c12`
Reply text: criterion not met

Inquiry: Next up: `COc1ccc(-c2nc3ncccn3c2-c2nnc(-c3ccc(F)cc3)o2)cc1`
Reply text: criterion not met

Inquiry: Next up: `CCOC(=O)N1C/C(=C/c2ccc(Cl)cc2)C(=O)/C(=C/c2ccc(Cl)cc2)C1`
Reply text: criterion not met

Inquiry: Next up: `CC(C)(C#N)Nc1ccccc1`
Reply text: criterion not met

Inquiry: Next up: COc1cc(/C=C2\CCCC3=C2N=C2SC=NN2C3c2cc(OC)c(OC)c(OC)c2)cc(OC)c1OC (stereo not drawn)
Reply text: criterion met

Inquiry: Next up: `N#CCCN(NC(=O)OCc1ccccc1)C(=O)OCc1ccccc1`
Reply text: criterion not met

Inquiry: Next up: Nc1c(C(=O)Nc2ccccc2)sc2nc3c(cc12)C(O)CCC3 (stereo not drawn)
Reply text: criterion met

Inquiry: Next up: `COc1cc(C)ccc1C(=O)c1ccc(C)cc1OC`
Reply text: criterion met

Inquiry: Next up: `O=c1oc2cc(OS(=O)(=O)c3ccccc3)ccc2c2c1CCCCC2`
Reply text: criterion met

Inquiry: Next up: `COc1cc(/C=N/NC(=O)c2ccccc2Nc2ccnc(C(F)(F)F)c2)ccc1O`
Reply text: criterion not met

Inquiry: Next up: `Nc1ccc2cc(S(=O)(=O)O)cc(O)c2c1N=Nc1ccc(F)cc1`
Reply text: criterion not met

Inquiry: Next up: `Cc1ccc(NC(=O)NC2CCCCC2)cc1`
Reply text: criterion not met

Inquiry: Next up: O=C(O)C(SC(C(=O)O)c1ccccc1)c1ccccc1 (stereo not drawn)
Reply text: criterion not met

Inquiry: Next up: `Oc1[nH]c2cc(Cl)ccc2c1/C=c1/ccc2c(c1)N=C(c1cc(F)cc(F)c1)N=2`
Reply text: criterion met

Inquiry: Next up: `FC(F)(F)c1ccc(-c2cnc(Cl)nc2N2CCC3(CC2)OCCO3)cc1`
Reply text: criterion not met

Inquiry: Next up: COc1ccc(C2=NN(C(=O)c3ccc(S(C)(=O)=O)cc3)C(c3ccc(OC)c(OC)c3)C2)c(OC)c1 (stereo not drawn)
Reply text: criterion not met

Inquiry: Next up: `CC(=O)c1cc(Cl)ccc1O`
Reply text: criterion not met

Inquiry: Next up: `CN(C)N=Nc1nn(C(=O)Nc2ccc(Cc3ccccc3)cc2)c2ccccc12`
Reply text: criterion met

Inquiry: Next up: `COc1ccc(Nc2cc(C)nc(NCCCNc3ccnc4cc(Cl)ccc34)n2)cc1`
Reply text: criterion met

Inquiry: Next up: `Cc1ccc(NC(=O)Nc2cccnc2)cc1NC(=O)Nc1cccnc1`
Reply text: criterion not met

Inquiry: Next up: `O=C1Nc2ccccc2C1=NC1CCCCC1`
Reply text: criterion not met

Inquiry: Next up: `COc1ccc(/C=C2/CN(CCC#N)C/C(=C\c3ccc(OC)cc3)C2=O)cc1`
Reply text: criterion met

Inquiry: Next up: `COc1cc(Cl)cc(-c2nn(-c3cccc(NC(=O)c4ccc(Cl)c(Cl)c4)c3)cc2-c2ccncc2)c1`
Reply text: criterion not met

Inquiry: Next up: `Cn1c(C(N)=O)cc2c1-c1nc(Nc3ccccc3)ncc1CCC2`
Reply text: criterion met

Inquiry: Next up: CCCCCCCCCCCCCCCC(=O)OC1[C@@H](OC(=O)CCCCCCCCCCCCCCC)[C@@H](C(=O)N[C@@H](CCCCN)C(=O)OC)O[C@H]1n1cnc2c(=O)[nH]c(NC(=O)C(C)C)nc21 (stereo partly drawn)
Reply text: criterion not met

Inquiry: Next up: `O=C(O)c1ccc(P(=O)(O)O)c([N+](=O)[O-])c1`
Reply text: criterion not met

Inquiry: Next up: `CN(C)c1ccc(/C=C/C=N/NC(=O)c2cc(O)c(O)c(O)c2)cc1`
Reply text: criterion not met

* * *

System: PC-3 prostate
Assay: NCI-60 one-dose screen, 48 h (100 = growth as untreated, 0 = no growth, -100 = all killed)
Conditions: 10 µM
Compounds without any hit were thinned out: in the full panel of roughly 83,000, 20% have a hit.
Entries whose growth is below 90% take T; entries at or above 90% take F.

Inquiry: Find out if reported growth for `COc1cc(OC)cc(-c2cncn2-c2ccc(-c3nc4cc(OC)cc(OC)c4s3)cc2)c1` is less than 90%
Reply text: T

Inquiry: Next up: `CCN(CC)CCOc1nc2ccc(OC)cc2c2c1-c1ccc(OC)cc1C2=O`
Reply text: T

Inquiry: Next up: `O=C1/C(=C/c2ccc([N+](=O)[O-])s2)Oc2ccccc21`
Reply text: T

Inquiry: Next up: `N#CCCN(NC(=O)OCc1ccccc1)C(=O)OCc1ccccc1`
Reply text: F

Inquiry: Next up: `COc1cc(Cl)cc(-c2nn(-c3cccc(NC(=O)c4ccc(N5CCOCC5)c(C(F)(F)F)c4)c3)cc2-c2ccncc2)c1`
Reply text: T

Inquiry: Next up: `O=C(O)CN1C(=O)c2cccc3cccc(c23)C1=O`
Reply text: F

Inquiry: Next up: `CCN(CC)CCNc1ccc(CO)c2oc3cc(Cl)ccc3c(=O)c12`
Reply text: T

Inquiry: Next up: `CCCCCCCNc1nc(C=O)ncc1-c1ccc(C(F)(F)F)cc1`
Reply text: T

Inquiry: Next up: CC1CC(=O)OC(C)C1 (configuration not stated)
Reply text: F

Inquiry: Next up: `O=C(Nc1cccc(-n2cc(-c3ccncc3)c(-c3cc(O)cc(Cl)c3)n2)c1)c1ccc(N2CCOCC2)c(C(F)(F)F)c1`
Reply text: T

Inquiry: Next up: `COc1ccc(-c2cc(/C=C/C(=O)c3cc(OC)c(OC)c(OC)c3)[nH]n2)cc1OC`
Reply text: T

Inquiry: Next up: `Cc1cc2ccccc2nc1-c1ccccc1F`
Reply text: F

Inquiry: Next up: CCCN(CCC)CCC(O)c1cc2c(c3ccccc13)CCCC2 (configuration not stated)
Reply text: T

Inquiry: Next up: `Cc1cccc(NC2=C(C#N)C(=O)NC3(CCCC3)S2)c1`
Reply text: F

Inquiry: Next up: `CCN1Cc2c(/C=C/c3ccccc3)nc3ccc(OC)cc3c2N(c2cccc(Cl)c2)C1`
Reply text: T

Inquiry: Next up: `O=C(N/N=C\c1cc(Cl)ccc1[N+](=O)[O-])c1ccco1`
Reply text: F

Inquiry: Next up: CCc1ccc2c(c1)N(CCO)C1=C(C(=O)OC1)C2c1cc(OC)c(OC)c(OC)c1 (configuration not stated)
Reply text: T

Inquiry: Next up: `Cc1ccc(Nc2nnc(-c3cc(-c4ccncc4)n(-c4ccccc4)n3)s2)cc1`
Reply text: T

Inquiry: Next up: `O=C1CC[C@@H]2CCCC[C@@H]2C1`
Reply text: T

* * *

System: 786-0 renal
Assay: NCI-60 one-dose screen, 48 h (100 = growth as untreated, 0 = no growth, -100 = all killed)
Details: 10 µM
Compounds without any hit were thinned out: in the full panel of roughly 83,000, 20% have a hit.
Give growth for every item shown.
Just the number in %, nothing appended.

Inquiry: What measured growth goes with `Cc1cccc2c1O/C(=C\c1ccc([N+](=O)[O-])o1)C2=O` ?
Reply text: -39.5

Inquiry: Next up: `COc1cc(/C=C\c2cc(OC)c(OC)c(OC)c2)cc(NS(=O)(=O)c2ccc(Cl)cc2)c1OC`
Reply text: 39.3

Inquiry: Next up: CCOCC(=O)C(C#N)c1ccc(Cl)c(Cl)c1 (stereo not given)
Reply text: 101

Inquiry: Next up: `CCN1Cc2c(/C=C/c3ccccc3)nc3ccc(OC)cc3c2N(c2cccc(Cl)c2)C1`
Reply text: 72.3

Inquiry: Next up: `COc1ccccc1CNCCN1C(=O)c2ccc3c4c(ccc(c24)C1=O)C(=O)N(CCNCc1ccccc1OC)C3=O`
Reply text: -82.4

Inquiry: Next up: `Cc1cc(N(CCCNc2ccnc3cc(Cl)ccc23)Cc2ccc3c(c2)OCO3)nc(N2CCCCC2)n1`
Reply text: -91.5

Inquiry: Next up: O=C1C(c2ccccc2)C2C=CC(C2)N1O (stereo not given)
Reply text: 102

Inquiry: Next up: `CN1CCC(CNc2cc(C3(C(=O)Nc4cc(C(=O)Nc5ccc(Cl)c(C(F)(F)F)c5)ccc4F)CC3)ncn2)CC1`
Reply text: -38.4

Inquiry: Next up: `CC(=O)c1nc2ccccc2n1CCNC(N)=O`
Reply text: 95.1

Inquiry: Next up: S=C1SCC(c2ccccc2)S1 (stereo not given)
Reply text: 109
